Can you tell me growth for the items I'm about to list?
# Tested on: NCI-H23 lung
# EXPERIMENT NOTES: NCI-60 one-dose screen, 48 h (100 = growth as untreated, 0 = no growth, -100 = all killed)
# RUN CONDITIONS: 10 µM unless noted
This is part of a sample that, as a whole, favours compounds with a hit. Of some 83,000 tested, about 20% had one in any assay.
// return numeric value only (unit: %, not printed)

Which measured growth value corresponds to CN1C(=O)N(C)C2C1NN=c1s/c(=C\c3ccccn3)c(=O)n12 (centres undefined) ?
99.1

Given the compound `CS(=O)(=O)c1ccc(-c2nn(-c3ccccc3)cc2/C=C/C(=O)c2ccc(Br)cc2)cc1` , what is its reported growth?
100

// returns reported growth for input `CN1CCN(c2ccc3c(c2)nc(NNC(=O)c2ccncn2)c2cccn23)CC1`
36.2

Which growth value is on record for `CCOC(=O)c1ccc(N/C=C/C(=O)c2ccccc2)cc1` ?
103

Suppose we examine the compound `CNC(=O)c1cc(Oc2ccc3nc(NC(=O)c4cc(C)cc(C)c4)sc3c2)ccn1` ; what growth value has been reported?
97.2

So what does the record say about growth for `CCNCCCn1c2c(c3cc(OC)c(OC)cc3c1=O)C(=O)c1cc(OC)cnc1-2` ?
21.1

Given `CSc1nccc(-c2c(-c3ccc(F)c(OCc4ccc(F)cc4)c3)nc3sccn23)n1` , state its recorded growth.
60.2

Entry under review: `CN(c1ccc(F)cc1)S(=O)(=O)c1ccc(-c2cnc(C3CC3)o2)cc1` . Reported growth?
30.5

Request the reported growth associated with `Cc1ccc(NC(=O)c2ccc(CN3CCN(C)CC3)c(C(F)(F)F)c2)cc1Oc1ccc(-c2[nH]nc3ncnc(N)c23)cc1`
90.1

====

# Tested on: MDA-MB-231 breast
# EXPERIMENT NOTES: NCI-60 one-dose screen, 48 h (100 = growth as untreated, 0 = no growth, -100 = all killed)
# RUN CONDITIONS: 10 µM unless noted
The panel holds about 83,000 compounds, 20% with a hit somewhere; the sample as a whole holds those more often.
Would you mind classing the entries by growth? Ranges: bin 0: < 30%; bin 1: ≥ 30% and < 80%; bin 2: ≥ 80%

Hi, small favor: classify `COc1ccc([C@H]2[C@H](O)C(=O)N2c2cc(OC)c(OC)c(OC)c2)cc1` by its growth when you get a moment.
bin 0

Input `COc1ccccc1N1CCN(C2=NN=C(c3cccc(Cl)c3)c3ccccc3C2)CC1` ; output its category
bin 0

Which class is correct for the following molecule? `O=C(Nc1cc(Cl)cc(Cl)c1)Nc1ccc2oc(=O)ccc2c1`
bin 0

Form field 'band' for `O=C(NNc1nc2cc(F)c(F)cc2n2cccc12)c1cccnn1`
bin 1

Sort into band: `COc1cc(-c2nc(SCc3ccc(C)cc3)[nH]c(=O)c2C#N)ccc1OCc1ccccc1`
bin 2

Bin? `COc1ccc(Cn2cc3c(c2-c2ccccc2)CCCc2cnoc2-3)cc1[N+](=O)[O-]`
bin 1

Which band does `O=C1[C@H]2Cc3c([nH]c4ccccc34)[C@@H](c3c(Cl)cccc3Cl)N2C(=O)CN1C1CCN(Cc2ccccc2)CC1` fall in?
bin 2

Which class does `CCOC(=O)c1c(Nc2ccccc2)nn2c(-c3ccc(OC)c(OC)c3)ccnc12` fall in?
bin 1

Looking at `Cc1ccc(-c2cc(-c3ccc(N(C)C)cc3)n3c(n2)nc2ccccc23)cc1` , which class would you pick?
bin 1

Please classify: `Cc1ccc(NC(=O)c2cc(/C=C/C(=O)NO)cc(C(F)(F)F)c2)cc1Nc1nccc(-c2cccnc2)n1`
bin 0

// return the class label for `COc1cc2c3c(n(CCCNC4CCCC4)c(=O)c2cc1OC)-c1cc2c(cc1C3=O)OCO2`
bin 0

Classify this molecule: `C=C1C(=O)O[C@@H]2/C=C(/C)C3=CC(=O)[C@@](C)(C[C@H](OC(=O)/C(C)=C\C)[C@@H]12)O3`
bin 0

Would you mind sorting `CNC(=O)c1cc(Oc2ccc3nc(NC(=O)c4cc(C)cc(C)c4)sc3c2)ccn1` into the appropriate category?
bin 2

Class (by measured growth) for `Cn1cc(-c2nn3cc(-c4cccnc4)nc3s2)c2ccccc21`
bin 1

Determine which band this molecule sits in: `CCn1c2ccc(/C=N/NS(=O)(=O)CCN(C)C)cc2c2cc(/C=N/NS(=O)(=O)CCN(C)C)ccc21`
bin 2

Which growth category applies to `CCOC(=O)c1c(NC(=O)c2ccc(F)cc2F)sc2c1CCC(=O)C2` here?
bin 2

Hi there! Could you help me figure out the category for COc1ccc(N2C(=O)c3cc(OC)c(OC)cc3NC2SCc2ccccc2)cc1 (centres undefined) please?
bin 2

====

# Tested on: K-562 leukemia
# EXPERIMENT NOTES: NCI-60 one-dose screen, 48 h (100 = growth as untreated, 0 = no growth, -100 = all killed)
# RUN CONDITIONS: 10 µM unless noted
About 83,000 compounds went through this panel and 20% of them were active in at least one assay; those are over-represented in the sample as a whole. The source made the active and inactive calls. Rule for the calls: active = growth percent below 10; inactive = the rest.
MEASURE: growth

What does the record list as growth for `N#Cc1c(NC(=O)c2ccccc2C(F)(F)F)sc2c1CCC(=O)C2` ?
10.9% (inactive)

So what's the measured growth for this one? `CC(=O)Nc1ccc(C)c(Nc2cc(-c3ccc(-n4cccn4)cc3)[nH]n2)c1`
19% (inactive)

Param item = `COc1cc2oc(-c3cccc(NC(=O)c4cc(NC(=O)[C@H](C)NC(=O)OC(C)(C)C)ccc4C)c3)cc(=O)c2c(OC)c1OC` ; retrieve measured growth.
47.4% (inactive)

Query: growth; subject: `C/C(=C(/c1ccc(O)cc1)c1ccc(OCCN(C)C)cc1)c1ccc(Cl)cc1`
0.0711% (active)

Quick check: growth of `COc1ccc(S(=O)(=O)n2cc(C=O)c3ccccc32)c(OC)c1` ?
14.4% (inactive)

====

# System: ACHN renal
# EXPERIMENT NOTES: NCI-60 one-dose screen, 48 h (100 = growth as untreated, 0 = no growth, -100 = all killed)
# RUN CONDITIONS: 10 µM unless noted
This is part of a sample that, as a whole, favours compounds with a hit. Of some 83,000 tested, about 20% had one in any assay.
Provide the reported growth of each item.
Field: numeric (%). Do not append units.

Need growth, item `COc1ccc(-c2cc(-c3ccc(Cl)cc3)nc3nc(N)nn23)cc1`
96.3

// growth lookup, key: `COc1cc(O)c2c(c1)[C@H]1O[C@@H]1C[C@H](O)[C@H](O)C(=O)/C=C\C[C@H](C)OC2=O`
45.4

Dear colleague, I am looking for the recorded growth of the following molecule: `COC(=O)c1nc(-c2ccc(C)cc2)oc1S(=O)(=O)N1CCN(c2oc(-c3ccccc3)nc2C#N)CC1`
100

Find the recorded growth belonging to `O=c1oc2ccc(-c3ccc(F)cc3F)cc2c(=O)n1-c1ccc(F)c(F)c1` and report it.
2.6

Which growth value belongs to `Fc1ccccc1/C=C(/C1=NCCN1)n1cnc2ccccc21` ?
97

What value of growth has been recorded for this entry: `COc1ccc(Cn2cc3c(c2-c2cc(OC)c(OC)c(OC)c2)CCCc2cnoc2-3)cc1`
36.3

What measured growth goes with `COc1ccc2c(C3=C(c4c[nH]c5ccccc45)C(=O)N(O)C3=O)coc2c1` ?
94.2

Look up growth for this molecule: `O=C(O)c1ccc(-n2cc(CNc3ccc(F)cc3)c(-c3ccc(C(F)(F)F)cc3)n2)cc1`
76.6

# query: growth of entry `COc1cc(/C=N/Nc2ccnc3cc(Cl)ccc23)cc(OC)c1O`
-98.2

====

# Test system: OVCAR-5 ovarian
# EXPERIMENT NOTES: NCI-60 one-dose screen, 48 h (100 = growth as untreated, 0 = no growth, -100 = all killed)
# RUN CONDITIONS: 10 µM unless noted
The panel holds about 83,000 compounds, 20% with a hit somewhere; the sample as a whole holds those more often.
MEASURE: growth (%)
Please respond with the number in % and leave the unit unwritten.

Return reported growth; argument: `O=C(Nc1ccc(Cl)cc1)Nc1nc2ccc([N+](=O)[O-])cc2s1`
18.4

Give the measured growth of `O=C(CSc1ccc(-c2nc3ccccc3[nH]2)cn1)N1CCN(c2ccccc2F)CC1` .
107

Looking for the measured growth of `CN(C)C(=O)c1ccccc1-n1cnc2ccccc2c1=O` , can you help?
104

// query growth value for entry C#CCOc1ccc(C(Nc2ccc(OC)cc2)c2nnnn2C2CCCCC2)cc1 (stereo not given)
102

Which growth reading was recorded for the molecule `CN(C)CCn1c2ccc(N)cc2c2nc3ccccc3nc21` ?
41

So what does the record say about growth for `CS(=O)(=O)c1nccc(-c2c(-c3ccc(F)c(OCCc4ccccc4)c3)nc3sccn23)n1` ?
100

Fill in the blank: the reported growth of `COc1cccc(/C=C/C(=O)c2ccc(NC(=O)COc3cccc4cccnc34)cc2)c1` is ____.
103

Field request: growth | item: `C=CCn1c(SCC(=O)Nc2cccc(C(=O)/C=C/c3ccccc3Cl)c2)nc2ccccc2c1=O`
95.1

Please give the measured growth for this molecule: `CN1CCN(Cc2ccc(NC(=O)c3cncc(C#Cc4cnc5ccc(NC6CCOCC6)nn45)c3)cc2C(F)(F)F)CC1`
0.169

Requested read-out: growth. Entry: `COc1ccc(CN2C(=O)/C(=C/c3nc(CO)cs3)SC2=S)cc1`
107

These measurements were taken from PubChem BioAssay (NCI).
